- method_summary: in vitro
- Format: in vitro ADME, rat
- assay_context: rat, plasma, rat plasma, room temperature
reported_metric: half-life at 0.6 mg/mL (h)
Express your answer in h, writing the number without its unit.

The examples below pair each entry with its known result.
- Ac-WKKIKKIIKKIKKI-NH2 [pepI2]: 11.2
- Ac-WKKLKKLLKKL-NH2 [pepD3]: 19.1

Could you now consider this next substance?
Incoming: Please list half-life at 0.6 mg/mL recorded for the substance Ac-WKKLKKLLKKLKKL-NH2 [pepD2]
Outgoing: 23.1
